src = patent US20080146614A1

Target: CB1 receptor (Homo sapiens)
Construct: expressed in transfected cells
Sequence (P21554 whole entry): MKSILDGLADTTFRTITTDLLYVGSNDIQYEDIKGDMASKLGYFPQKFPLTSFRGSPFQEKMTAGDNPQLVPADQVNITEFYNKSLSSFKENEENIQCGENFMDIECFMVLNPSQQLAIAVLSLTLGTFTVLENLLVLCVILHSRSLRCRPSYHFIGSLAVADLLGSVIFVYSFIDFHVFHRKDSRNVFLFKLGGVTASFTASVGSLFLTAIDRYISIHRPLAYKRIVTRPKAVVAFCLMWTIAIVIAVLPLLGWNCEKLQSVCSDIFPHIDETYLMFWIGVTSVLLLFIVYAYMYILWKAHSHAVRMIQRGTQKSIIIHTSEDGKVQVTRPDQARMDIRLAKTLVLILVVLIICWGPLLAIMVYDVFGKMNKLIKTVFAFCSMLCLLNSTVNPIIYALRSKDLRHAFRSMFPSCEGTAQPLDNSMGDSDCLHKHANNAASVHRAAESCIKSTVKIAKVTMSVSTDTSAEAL
Test: [35S]-GTPγS binding assay on membranes from cells stably transfected with the CB1 gene, inhibition of agonist CP55940 (EC80)
Assay type: biochemical
Settings: half maximal inhibition of GTPγS binding, EC80 concentration of CP55940
MEASUREMENT LABEL: IC50 (nM)
Value expressed in nM; do not type the unit.

# input Item CCCS(=O)(=O)Oc1ccc(-c2c(CO)c(C(=O)NN3CCCCC3)nn2-c2ccc(Cl)cc2Cl)cc1 has what recorded IC50?
# output 3.3
